- target: UniProt Q96RR4
- Sequence (Q96RR4 whole entry, looked up): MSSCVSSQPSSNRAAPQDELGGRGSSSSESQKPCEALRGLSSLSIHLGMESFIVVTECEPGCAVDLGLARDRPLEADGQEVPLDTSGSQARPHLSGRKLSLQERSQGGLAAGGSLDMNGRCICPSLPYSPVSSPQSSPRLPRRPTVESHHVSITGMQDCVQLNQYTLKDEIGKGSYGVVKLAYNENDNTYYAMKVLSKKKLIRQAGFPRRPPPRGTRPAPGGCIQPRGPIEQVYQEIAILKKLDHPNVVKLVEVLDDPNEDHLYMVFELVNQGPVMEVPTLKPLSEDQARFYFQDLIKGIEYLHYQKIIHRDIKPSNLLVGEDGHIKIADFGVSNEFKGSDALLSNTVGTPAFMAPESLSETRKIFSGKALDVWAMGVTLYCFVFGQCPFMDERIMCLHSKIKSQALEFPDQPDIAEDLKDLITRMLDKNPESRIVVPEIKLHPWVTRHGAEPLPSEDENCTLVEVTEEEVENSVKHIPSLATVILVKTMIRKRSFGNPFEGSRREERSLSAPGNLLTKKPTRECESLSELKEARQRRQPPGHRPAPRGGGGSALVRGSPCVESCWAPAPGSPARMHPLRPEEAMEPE
- test: radiometric filter-binding kinase assay, Kinase HotSpot
- assay_setup: compound 0.5 µM; ATP 10 µM
assay_endpoint: residual activity (%)
Kindly answer with a numeric value in %, unit omitted.

Worked cases, residual activity given:
molecule | target | residual activity [%]
O=C1NC(=O)c2c1c1c3ccccc3n3c1c1c2c2ccccc2n1C1CCC3O1 | UniProt Q96RR4 | 7.93
c1ccc(-c2n[nH]c3c2oc2ccccc23)cc1 | UniProt Q96RR4 | 87.5
Cc1ccc(S(=O)(=O)/C=C/C#N)cc1 | UniProt Q96RR4 | 102
O=C1NC(=O)/C(=C/c2ccc3c(c2)OC(F)(F)O3)S1 | UniProt Q96RR4 | 82.9
CCCC(=O)Oc1ccc2[nH]c(C(=O)c3cc4ccccc4[nH]3)cc2c1 | UniProt Q96RR4 | 84.6
O=C1Nc2ccc(Cl)cc2/C1=C/c1cc(Cl)c(O)c(Cl)c1 | UniProt Q96RR4 | 51.5
COc1cc2ncnc(Nc3cccc(Cl)c3)c2cc1OC | UniProt Q96RR4 | 97.5
CC(C)N(CCC(=O)c1ccc2ccccc2c1)Cc1ccccc1 | UniProt Q96RR4 | 85.2
c1ccc(-c2n[nH]cc2-c2ccnc3ccccc23)nc1 | UniProt Q96RR4 | 97
O=S(=O)(c1cccc2cnccc12)N1CCCNCC1 | UniProt Q96RR4 | 95.9

Ask: Could you tell me which residual activity is on file for `O=c1cc(N2CCOCC2)oc2c1ccc1ccccc12` ?
Reply: 104

Ask: Endpoint output: residual activity of `O=C1NC(=O)C(c2cn(CCCn3ccnc3)c3ccccc23)=C1Nc1ccccc1` . Value?
Reply: 51.3

Ask: What value of residual activity has been recorded for this entry: `Nc1ccc2ncnc(NCCc3ccc(Oc4ccccc4)cc3)c2c1`
Reply: 92.6

Ask: Can you share its residual activity? I mean this molecule: `Cc1ccc(Nc2nccc(N(C)c3ccc4c(C)n(C)nc4c3)n2)cc1S(N)(=O)=O`
Reply: 98.5

Ask: Bench note: what residual activity did `CCC(=O)Nc1ccc2ncnc(Nc3cccc(Br)c3)c2c1` show?
Reply: 84.3

Ask: So what does the record say about residual activity for CO[C@H]1CC2CC[C@@H](C)[C@@](O)(O2)C(=O)C(=O)N2CCCC[C@H]2C(=O)OC([C@H](C)C[C@@H]2CC[C@@H](O)[C@H](OC)C2)CC(=O)[C@H](C)/C=C(\C)[C@@H](O)[C@@H](OC)C(=O)[C@H](C)C[C@H](C)/C=C/C=C/C=C/1C (stereo partly specified) ?
Reply: 115

Ask: Please look up its residual activity: `CNc1cc2c(Nc3cccc(Br)c3)ncnc2cn1`
Reply: 80

Ask: I would be grateful if you could share the reported residual activity for `N#CC(C#N)=C(N)/C(C#N)=C/c1ccc(O)cc1` .
Reply: 91.6

Ask: If you can, please state the reported residual activity value of `CCN(CC)CCNC(=O)c1c(C)[nH]c(/C=C2\C(=O)Nc3ccc(Cl)cc32)c1C` .
Reply: 48

Ask: Which residual activity is reported for this molecule? `CC(=O)c1ccc(N2CCOCC2)cc1O`
Reply: 115

Ask: // query residual activity value for entry `CC#CC(=O)Nc1cc2c(Nc3ccc(F)c(Cl)c3)ncnc2cn1`
Reply: 103

Ask: What measured residual activity goes with `COc1ccc2c(c[n+](C)c3c4cc5c(cc4ccc23)OCO5)c1OC` ?
Reply: 98.2

Ask: Field request: residual activity | item: `COc1ccc(COc2ccc(Cc3cnc(N)nc3N)cc2OC)cc1`
Reply: 103

Ask: If you can, please state the reported residual activity value of `CCOC(=O)c1c(C)[nH]c(/C=C2\C(=O)Nc3ccccc32)c1C` .
Reply: 90.8

Ask: What does the data say about its residual activity? Entry: `Cc1ccc(NC2=CC(=O)c3sc(C)nc3C2=O)cc1`
Reply: 92.5

---

Listing: residual activity of selected compounds
- target: PRKCB2 (human)
- test: radiometric filter-binding kinase assay, Kinase HotSpot
- assay_setup: compound 0.5 µM; ATP 10 µM
The reply should be a number in %, with the unit left off.

Reference set, count: 4
compound | residual activity (%)
COc1ccc2c(c[n+](C)c3c4cc5c(cc4ccc23)OCO5)c1OC | 100
O=C1NC(=O)/C(=C/c2ccc3c(c2)OC(F)(F)O3)S1 | 97.6
Cc1ccc(S(=O)(=O)/C=C/C#N)cc1 | 104
Cc1[nH]c(/C=C2\C(=O)Nc3ccc(S(=O)(=O)N(C)c4cccc(Cl)c4)cc32)c(C)c1C(=O)N1CCN(C)CC1 | 99.1

Ask: Requested field: residual activity. Item: `c1ccc(-c2n[nH]c3c2oc2ccccc23)cc1`
Reply: 113

Ask: I would be grateful if you could share the reported residual activity for `CC[n+]1c(/C=C/N(C)c2ccccc2)n(-c2ccccc2)c2ccc(-c3nc4ccccc4s3)cc21` .
Reply: 118

Ask: # query: residual activity of entry `CCOC(=O)c1c(C)[nH]c(/C=C2\C(=O)Nc3ccccc32)c1C`
Reply: 91.5

Ask: // lookup residual activity for `CC#CC(=O)Nc1cc2c(Nc3ccc(F)c(Cl)c3)ncnc2cn1`
Reply: 99.5

Ask: Endpoint output: residual activity of `Oc1cccc(-c2nc(N3CCOCC3)c3oc4ncccc4c3n2)c1` . Value?
Reply: 102

Ask: Suppose we examine the compound `Nc1ncnc2c1c(-c1ccc(Oc3ccccc3)cc1)cn2C1CCCC1` ; what residual activity value has been reported?
Reply: 107

Ask: residual activity for `Nc1ccc2ncnc(NCCc3ccc(Oc4ccccc4)cc3)c2c1` ?
Reply: 104

Ask: Entry under review: `CNc1cc2c(Nc3cccc(Br)c3)ncnc2cn1` . Reported residual activity?
Reply: 102

Ask: Look up residual activity for this compound: `O=C1NC(=O)c2c1c1c3ccccc3n3c1c1c2c2ccccc2n1C1CCC3O1`
Reply: 6.42

Ask: For the compound `CCN(CC)CCNC(=O)c1c(C)[nH]c(/C=C2\C(=O)Nc3ccc(F)cc32)c1C` , what residual activity is on record?
Reply: 104

Ask: // residual activity lookup, key: `COc1ccc(COc2ccc(Cc3cnc(N)nc3N)cc2OC)cc1`
Reply: 110

Ask: Tell me the measured residual activity of `CCCC(=O)Oc1ccc2[nH]c(C(=O)c3cc4ccccc4[nH]3)cc2c1` , please.
Reply: 102

Ask: Report residual activity for `Nc1cccc(-c2cc3c(Oc4cccc(O)c4)ncnc3[nH]2)c1` please.
Reply: 97.5

Ask: Reported residual activity for CO[C@H]1CC2CC[C@@H](C)[C@@](O)(O2)C(=O)C(=O)N2CCCC[C@H]2C(=O)OC([C@H](C)C[C@@H]2CC[C@@H](O)[C@H](OC)C2)CC(=O)[C@H](C)/C=C(\C)[C@@H](O)[C@@H](OC)C(=O)[C@H](C)C[C@H](C)/C=C/C=C/C=C/1C (stereo partly specified) : what is it?
Reply: 89.1

Ask: Reported residual activity, compound `CC(C)N(CCC(=O)c1ccc2ccccc2c1)Cc1ccccc1` : ____
Reply: 101

Ask: # query: residual activity of entry `CCC(=O)Nc1ccc2ncnc(Nc3cccc(Br)c3)c2c1`
Reply: 101

Ask: Reported residual activity, compound `Cc1ccc(NC2=CC(=O)c3sc(C)nc3C2=O)cc1` : ____
Reply: 93.8

Ask: Quick one: residual activity of `CNC(=O)c1cc(Oc2ccc(NC(=O)Nc3ccc(Cl)c(C(F)(F)F)c3)cc2)ccn1` ?
Reply: 97.5

Ask: What does the record list as residual activity for `Nc1ncnc2[nH]nc(Nc3ccc(F)cc3)c12` ?
Reply: 105

Ask: Requested read-out: residual activity. Entry: `N#CC(C#N)=C(N)/C(C#N)=C/c1ccc(O)cc1`
Reply: 111

---

- target: MAP2K2 (human)
- test: radiometric filter-binding kinase assay, Kinase HotSpot
- assay_setup: compound 0.5 µM; ATP 10 µM
assay_endpoint: residual activity

Previously resolved entries follow.
smiles_repr | assay_endpoint | result
O=C1NC(=O)/C(=C/c2ccc3c(c2)OC(F)(F)O3)S1 | residual activity | 110%
Cc1ccc(NC2=CC(=O)c3sc(C)nc3C2=O)cc1 | residual activity | 98.8%
CC(=O)c1ccc(N2CCOCC2)cc1O | residual activity | 99.8%
CC[n+]1c(/C=C/N(C)c2ccccc2)n(-c2ccccc2)c2ccc(-c3nc4ccccc4s3)cc21 | residual activity | 88.5%
Oc1cccc(-c2nc(N3CCOCC3)c3oc4ncccc4c3n2)c1 | residual activity | 85%
O=C1NC(=O)c2c1c1c3ccccc3n3c1c1c2c2ccccc2n1C1CCC3O1 | residual activity | 87.9%
COc1ccc2c(c[n+](C)c3c4cc5c(cc4ccc23)OCO5)c1OC | residual activity | 95.6%
c1ccc(-c2n[nH]cc2-c2ccnc3ccccc23)nc1 | residual activity | 106%
Nc1ncnc2[nH]nc(Nc3ccc(F)cc3)c12 | residual activity | 90%
Nc1ncnc2c1c(-c1ccc(Oc3ccccc3)cc1)cn2C1CCCC1 | residual activity | 103%

Let us move to another entry and its residual activity.
Ask: Give residual activity (MAP2K2 (human)) of the following compound: `O=c1cc(N2CCOCC2)oc2c1ccc1ccccc12`
Reply: 100%
